details: 323.15 K; 10100 kPa; Liquid; Frequency=1.5 MHz; Single path-length method
Exercise: state measured speed of sound for each of the molecules provided.
Give bare numbers, in m/s.

Here is how some molecules turned out for speed of sound.
[
  {
    "molecule": "CO [methanol]",
    "speed of sound (m/s)": 1087.2
  },
  {
    "molecule": "CCCCCCC [heptane]",
    "speed of sound (m/s)": 1107.3
  },
  {
    "molecule": "CCCO [propan-1-ol]",
    "speed of sound (m/s)": 1184.6
  },
  {
    "molecule": "CCO [ethanol]",
    "speed of sound (m/s)": 1126.5
  },
  {
    "molecule": "O [water]",
    "speed of sound (m/s)": 1560.2
  }
]

I'm hoping you can list speed of sound for every molecule here, please.
1. Cc1ccccc1 [toluene]
2. CCCCCCCC [octane]
3. CCCCCC [hexane]

1256.4
1146.1
1056.7

====

details: 323.15 K; 90100 kPa; Liquid; Frequency=1.5 MHz; Single path-length method
parameter: speed of sound (m/s)
Give bare numbers, in m/s.

Past entries and their recorded results:
[
  {
    "compoundStructureString": "CCCCCCC",
    "resultUnit": "m/s",
    "speed of sound": 1522.8
  },
  {
    "compoundStructureString": "CCCO",
    "resultUnit": "m/s",
    "speed of sound": 1537.5
  },
  {
    "compoundStructureString": "O",
    "resultUnit": "m/s",
    "speed of sound": 1694.9
  },
  {
    "compoundStructureString": "CCCCCC",
    "resultUnit": "m/s",
    "speed of sound": 1493
  },
  {
    "compoundStructureString": "CCO",
    "resultUnit": "m/s",
    "speed of sound": 1487.5
  },
  {
    "compoundStructureString": "Cc1ccccc1",
    "resultUnit": "m/s",
    "speed of sound": 1576.7
  },
  {
    "compoundStructureString": "CO",
    "resultUnit": "m/s",
    "speed of sound": 1435.9
  }
]

Now for the compound whose speed of sound we want.
The compound listed as CCCCCCCC shows speed of sound equal to 1545.7

====

settings: 283.15 K; 20100 kPa; Liquid; Frequency=1.5 MHz; Single path-length method
parameter: speed of sound (m/s)
Give bare numbers, in m/s.

[
  {
    "compoundStructureString": "CCCCCCC",
    "speed of sound [m/s]": 1323.2
  },
  {
    "compoundStructureString": "CCCCCCCC",
    "speed of sound [m/s]": 1353.6
  },
  {
    "compoundStructureString": "O",
    "speed of sound [m/s]": 1479.9
  },
  {
    "compoundStructureString": "CCCO",
    "speed of sound [m/s]": 1362.3
  },
  {
    "compoundStructureString": "CCO",
    "speed of sound [m/s]": 1306.5
  },
  {
    "compoundStructureString": "Cc1ccccc1",
    "speed of sound [m/s]": 1460.8
  }
]

Can you give me speed of sound for all of these, one by one?
1. CO
2. CCCCCC

1: 1258.7; 2: 1283.2
